Molecular target: GDP-loaded KRAS-G12V (Homo sapiens (Human), UniProt P01116, G12V)
Sequence (P01116-2 other isoform, or with tags, fused parts or gaps G12V): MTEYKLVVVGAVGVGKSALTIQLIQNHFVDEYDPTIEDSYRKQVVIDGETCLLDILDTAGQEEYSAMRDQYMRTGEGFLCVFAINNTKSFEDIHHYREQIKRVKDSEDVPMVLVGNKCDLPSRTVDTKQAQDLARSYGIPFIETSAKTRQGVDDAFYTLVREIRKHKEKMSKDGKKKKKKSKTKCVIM
Assay: KRAS (GDP) biochemical TR-FRET probe displacement assay, KRAS-G12V
Details: 2 hours
PROPERTY MEASURED: IC50 (nM)
Number in nM, nothing else.

Worked cases, IC50 given:
COMPOUND	UNIT TEXT	IC50
C#Cc1c(F)ccc2cc(N)cc(-c3nc4c5c(nc(OC[C@@]67CCCN6C[C@H](F)C7)nc5c3F)N3CCCOC[C@@H]3CC4)c12	nM	1.78
Cc1cc(N)nc(-c2c(Cl)c3c4c(nc(OC[C@@]56CCCN5C[C@H](F)C6)nc4c2F)N2CCCOCC2CC3)c1C(F)(F)F (mixture of isomers)	nM	4960
C#Cc1c(F)ccc2cccc(-c3nc4c5c(nc(OC[C@@]67CCCN6[C@H](COC(=O)N6CCCCC6)CC7)nc5c3F)N3CCCOC[C@@H]3CC4)c12	nM	0.2
C#Cc1c(F)ccc2cc(O)cc(-c3nc4c5c(nc(OC[C@@]67CCCN6[C@H](COc6nccnc6C(F)C(C)F)CC7)nc5c3F)N3CCCOC[C@@H]3CC4)c12 (stereo partly drawn)	nM	0.09

Lookup: GET /values?readout=IC50&system=GDP-loaded KRAS-G12V (Homo sapiens (Human), UniProt P01116, G12V)&item= C#Cc1c(F)ccc2cccc(-c3nc4c5c(nc(OCC6(CN7CCCCC7)CC6)nc5c3F)N3CCCOC[C@@H]3CC4)c12
Found: 17.1

Lookup: GET /values?readout=IC50&system=GDP-loaded KRAS-G12V (Homo sapiens (Human), UniProt P01116, G12V)&item= C#Cc1c(F)ccc2cc(O)cc(-c3nc4c5c(nc(OCC67CCCN6[C@H](COC(C(F)(F)F)C(F)(F)F)CC7)nc5c3F)N3CCCOCC3CC4)c12 (stereo partly drawn)
Found: 12.6
